Just for reference, paper PMC8911585 is where these values come from.

target: HmuY (Porphyromonas gingivalis, UniProt A2I2W2, H134M); assay: biochemical
Sequence (A2I2W2 26-216 H134M): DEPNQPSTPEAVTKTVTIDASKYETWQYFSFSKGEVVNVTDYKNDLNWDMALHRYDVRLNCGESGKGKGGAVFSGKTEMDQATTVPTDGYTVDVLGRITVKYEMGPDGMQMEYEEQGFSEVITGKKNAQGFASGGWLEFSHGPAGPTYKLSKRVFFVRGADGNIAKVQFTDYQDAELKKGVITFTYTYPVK
Measurement Label: Kd (µM)
Please reply with the bare figure in µM and do not write the unit itself.

Exercise: GET /values?readout=Kd&system=HmuY (Porphyromonas gingivalis, UniProt A2I2W2, H134M)&item= C=CC1=C(C)C2=Cc3c(C=C)c(C)c4[n]3[Fe]([Cl])[n]3c(c(C)c(CCC(=O)O)c3=CC3=NC(=C4)C(C)=C3CCC(=O)O)=CC1=N2 [Fe(III)heme]
Solution: 12

###

biological target: HmuY (Porphyromonas gingivalis, UniProt A2I2W2, H134M); test: biochemical
Measurement Label: Kd (nM)
Please reply with the bare figure in nM and do not write the unit itself.

Exercise: # query: Kd of entry `C=CC1=C(C)C2=Cc3c(C=C)c(C)c4[n]3[Fe][n]3c(c(C)c(CCC(=O)O)c3=CC3=NC(=C4)C(C)=C3CCC(=O)O)=CC1=N2`
Solution: 11
